The measured values listed here are drawn from patent US20260241013A1.

Target: CRBN (Homo sapiens, UniProt Q96SW2)
Construct: host or cells: HEK293 (NanoLuc CRBN HEK293 cells)
Sequence (Q96SW2 whole entry): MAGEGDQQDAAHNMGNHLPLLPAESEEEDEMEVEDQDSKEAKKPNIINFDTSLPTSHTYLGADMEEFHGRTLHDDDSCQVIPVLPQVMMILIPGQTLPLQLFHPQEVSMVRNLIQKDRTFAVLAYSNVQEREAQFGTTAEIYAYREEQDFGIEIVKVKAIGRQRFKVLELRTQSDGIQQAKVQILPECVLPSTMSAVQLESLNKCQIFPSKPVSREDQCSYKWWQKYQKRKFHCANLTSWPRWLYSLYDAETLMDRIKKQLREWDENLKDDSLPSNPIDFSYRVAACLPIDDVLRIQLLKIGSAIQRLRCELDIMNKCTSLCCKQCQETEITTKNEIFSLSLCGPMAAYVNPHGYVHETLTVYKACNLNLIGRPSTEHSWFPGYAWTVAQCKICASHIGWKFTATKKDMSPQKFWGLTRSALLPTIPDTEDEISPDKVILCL
Assay: NanoBRET In-cell CRBN Target Engagement Assay (live and lytic mode), NanoLuc CRBN HEK293 cells
Format: cell-based
Conditions: live mode, intact cells, 2 hours at 37° C.; read-out: pIC50 (live) (converted)
Quantity: IC50 (nM)
Numeric answer only, unit nM assumed.

// worked examples, IC50 included
Compound	Quantity	Units	Assay Value
Cc1nn(C)c(C)c1-c1c(Cl)ccc2c(CCCOc3cccc4cc(F)ccc34)c(C(=O)OCCN3CCOCC3)n(CCN3CCN(C(=O)COc4cccc5c4CN(C4CCC(=O)NC4=O)C5=O)CC3)c12 (centres unmarked)	IC50	nM	316
Cc1nn(C)c(C)c1-c1c(Cl)ccc2c(CCCOc3cccc4cc(F)ccc34)c(C(=O)OCOC(=O)CCO)n(CCN3CCN(C(=O)COc4cccc5c4CN(C4CCC(=O)NC4=O)C5=O)CC3)c12 (centres unmarked)	IC50	nM	39.8
CCOCCOCCOC(=O)OC(C)OC(=O)c1c(CCCOc2cccc3cc(F)ccc23)c2ccc(Cl)c(-c3c(C)nn(C)c3C)c2n1CCN1CCN(C(=O)COc2cccc3c2CN(C2CCC(=O)NC2=O)C3=O)CC1 (centres unmarked)	IC50	nM	63.1
Cc1nn(C)c(C)c1-c1c(Cl)ccc2c(CCCOc3cccc4cc(F)ccc34)c(C(=O)OCOC(=O)C(C)(C)C)n(CCN3CCN(C(=O)COc4cccc5c4CN(C4CCC(=O)NC4=O)C5=O)CC3)c12 (centres unmarked)	IC50	nM	39.8

Briefly, IC50 measured for Cc1nn(C)c(C)c1-c1c(Cl)ccc2c(CCCOc3cccc4cc(F)ccc34)c(C(=O)OCCN3CCN(C)CC3)n(CCN3CCN(C(=O)COc4cccc5c4CN(C4CCC(=O)NC4=O)C5=O)CC3)c12 (centres unmarked) : 398
